Tested on: A549-ACE2
Experiment: drug-induced phospholipidosis relative to tamoxifen; higher = more phospholipidosis
Conditions: 30 µM; 72 h
Structures can show the parent of a compound that is named as a salt.
ASSAY_ENDPOINT: drug-induced phospholipidosis (%)
// note: answer is a bare numeric in %

Return drug-induced phospholipidosis for the following molecule: `CCN1CCN(c2ccc(Nc3cc(N(C)C(=O)Nc4c(Cl)c(OC)cc(OC)c4Cl)ncn3)cc2)CC1`
27.1

In one line, give reported drug-induced phospholipidosis of the entry C[C@H](N)Cc1c[nH]cn1 [alpha-methylhistamine-dihydrobromide-(S)-(+)] .
4.01

In one line, give reported drug-induced phospholipidosis of the entry `Cn1nc(C(C)(C)C)cc1C(=O)N[C@@H](Cc1cccc(Cl)c1)C(=O)NCC#N` .
42

Now for another entry.
Query drug-induced phospholipidosis for `CC(=O)c1cc([N+](=O)[O-])c(Sc2ccc(F)cc2F)s1`
23.5

###

Tested on: Calu-3
Assay: drug sensitivity score (DSS) for viability; higher = more toxic; extreme values may be limits of the assay
Conditions: 72 h
List of drug sensitivity score values.
Form: value (number only, do not type unit).

Quote drug sensitivity score with test system Calu-3 for CN1[C@H]2C[C@H](OC(=O)[C@H](CO)c3ccccc3)C[C@@H]1[C@@H](O)C2 [anisodamine]
0

Return reported drug sensitivity score for target or system Calu-3, item CCCn1c(=O)c2nc(C34CC5CC(CC3C5)C4)[nH]c2n(CCC)c1=O [KW-3902] .
0

Would you please give the reported drug sensitivity score of N[C@@H](CCC(=O)N[C@@H](CS)C(=O)NCC(=O)O)C(=O)O [glutathione] with Calu-3?
0

From here, focus on the item given below.
Tell me drug sensitivity score of CC1(C)O[C@@H]2C[C@H]3[C@@H]4CCC5=CC(=O)CC[C@]5(C)[C@@]4(F)[C@@H](O)C[C@]3(C)[C@]2(C(=O)CCl)O1 [halcinonide] when tested on Calu-3.
0

###

Tested on: U2OS
Assay: cell viability relative to DMSO; higher = less toxic
Settings: 72 h; 1 nM
Recorded cell viability by entry
Supply the numeric figure in %, leaving out any unit text.

Observe how each entry below is paired with its result.
Note down cell viability recorded for O=C(/C=C/c1ccccc1)NC(NC(=S)Nc1cccc2cccnc12)C(Cl)(Cl)Cl (stereo unspecified)
98.3

Tell me its cell viability given CCCCN1CCCCC1C(=O)Nc1c(C)cccc1C (stereo unspecified) as the entry.
95.7

Look up cell viability of `COc1ccc(-c2coc3cc(O)cc(O)c3c2=O)cc1` and report it.
99.3

Annotate the molecule `O=C(Oc1ccc(Br)cc1)N1CCN2CCC1CC2` with its measured cell viability.
99

Recall and state the measured cell viability for `CCc1cc(-c2[nH]nc(C)c2-c2ccc3c(c2)OCCO3)c(O)cc1O` .
99.2

Here is the next item to consider.
Supply cell viability value. Item: `O=C(O)CNC(=O)c1nc(Cl)c2ccccc2c1O`
107

###

# key: entry, value: cell viability
System: HepG2
Experiment: cell viability relative to DMSO; higher = less toxic
Conditions: 72 h; 1000 nM
// note: answer is a bare numeric in %

The cases that follow already have their cell viability on record.
Note down cell viability recorded for COc1cc(OC)nc(O[C@H](C(=O)O)C(OC)(c2ccccc2)c2ccccc2)n1 [darusentan]
95.5

Annotate the molecule c1ccc2sc(SNC3CCCCC3)nc2c1 [N-cyclohexyl-2-benzothiazolesulfenamide] with its measured cell viability.
97.4

Fill in reported cell viability for this entry: O=C(O)c1ccc2c(c1)nc(Nc1cccc(Cl)c1)c1ccncc12 [CX-4945]
102

Output cell viability of `O=c1[nH]c2cc(C(F)(F)F)c(N3CCOCC3)cc2n(CP(=O)(O)O)c1=O`
90.5

Find the measured cell viability of CCOC(=O)OC(C)OC1=C(C(=O)Nc2ccccn2)N(C)S(=O)(=O)c2ccccc21 (configuration not stated) [ampiroxicam] and report it.
101

// fetch cell viability given entry CC1(C)O[C@@H]2[C@@H](CO[C@@]3(COS(N)(=O)=O)OC(C)(C)O[C@@H]23)O1 [topiramate]
95.9

Query cell viability for CCCCN1CCCCC1C(=O)Nc1c(C)cccc1C (configuration not stated) [bupivacaine]
97.2

Name the recorded cell viability of the item COC(=O)N[C@@H](C)CNc1nccc(-c2cn(C(C)C)nc2-c2cc(Cl)cc(NS(C)(=O)=O)c2F)n1 [Encorafenib (LGX818)] in your answer.
38.4

Further cases:
Item Cc1ccc(Nc2ncc3c(n2)N(C)C(=O)N(c2cc(NC(=O)c4cccc(C(F)(F)F)c4)ccc2C)C3)cn1 [GNF-7] : provide cell viability
16.8

Answer with reported cell viability of COc1ccccc1N1CCN(CCN2C(=O)CC3(CCCC3)CC2=O)CC1 [BMY-7378]
98.4

Quickly give me recorded cell viability for `Cn1c(=O)cnn(CCCCN2CCN(c3ncccn3)CC2)c1=O`
116

Return cell viability for the following molecule: C=C[C@@H]1C[C@]1(NC(=O)[C@@H]1C[C@@H](Oc2ncc(OC)c3ccc(Cl)cc23)CN1C(=O)[C@@H](NC(=O)OC(C)(C)C)C(C)(C)C)C(=O)NS(=O)(=O)C1CC1 [asunaprevir]
89.8

// Input: COc1cc([S+](C)[O-])ccc1-c1nc2cccnc2[nH]1 (configuration not stated) [sulmazole] . Output its cell viability only.
102

###

System: Calu-3
Test: drug sensitivity score (DSS) for viability; higher = more toxic; extreme values may be limits of the assay
Conditions: 72 h
ASSAY_ENDPOINT: drug sensitivity score
Just the number, please, no unit attached.

Read the entry Oc1ccc(C(O)CNCCCCCCNCC(O)c2ccc(O)c(O)c2)cc1O (stereo not given) [hexoprenaline] and write its reported drug sensitivity score.
0

More entries:
Let me know recorded drug sensitivity score for `CCC[C@H](NC(=O)[C@@H]1[C@H]2CCC[C@H]2CN1C(=O)[C@@H](NC(=O)[C@@H](NC(=O)c1cnccn1)C1CCCCC1)C(C)(C)C)C(=O)C(=O)NC1CC1` , thanks.
0

Provide only the value of recorded drug sensitivity score for Cc1cc(S(=O)(=O)O)c2c(C)ccc(C(C)C)cc1-2 [sodium-gualenate]
0

Identify measured drug sensitivity score associated with `CCN1CCN(c2ccc(Nc3cc(N(C)C(=O)Nc4c(Cl)c(OC)cc(OC)c4Cl)ncn3)cc2)CC1`
0

Supply drug sensitivity score value. Item: N=C(N)NCCSSCCNC(=N)N [guanidinoethyldisulfide-bicarbonate]
0

Read off the recorded drug sensitivity score for `COc1ccc([C@]2(C#N)CC[C@@H](C(=O)O)CC2)cc1OC1CCCC1`
0.3

// fetch drug sensitivity score given entry `CC(=O)N1N=C(c2ccc(N)cc2)c2cc3c(cc2C[C@H]1C)OCO3`
0

###

System: U2OS
Experiment: cell viability relative to DMSO; higher = less toxic
Settings: 72 h; 10 nM
ASSAY_ENDPOINT: cell viability
Numeric answer plus unit only.

Answered cases to consult:
Answer with the recorded cell viability for the molecule listed here: NS(=O)(=O)c1cc2c(cc1Cl)NC(CC1CCCC1)NS2(=O)=O (centres undefined) [cyclopenthiazide]
104%

Give cell viability for the following molecule: `Cc1cnc(-c2cc(N3CCN(C(=O)CCS(C)(=O)=O)CC3)ncc2Cl)c(C)c1`
101%

Tell me cell viability reported for `CCC(=O)NS(=O)(=O)c1ccc(-c2c(-c3ccccc3)noc2C)cc1`
113%

We now examine a further molecule.
Give recorded cell viability. `CC(C)CCC[C@@H](C)[C@H]1CC[C@H]2[C@@H]3CCC4=CC(=NO)CC[C@]4(C)[C@H]3CC[C@]12C`
95.9%

###

Test system: HepG2
Assay: cell viability relative to DMSO; higher = less toxic
Conditions: 72 h; 1000 nM
Catalogue of cell viability values
Numbers only here, please. The scale is %.

Let me know recorded cell viability for CCCn1c(=O)c2nc(C34CC5CC(CC3C5)C4)[nH]c2n(CCC)c1=O [KW-3902] , thanks.
101

Tell me cell viability reported for Cc1c(O)c(=O)n(-c2ccccc2)n1C [4-hydroxy-phenazone]
96.6

Dear colleague, please send me the reported cell viability for C[S+](CC[C@H](N)C(=O)O)C[C@H]1O[C@@H](n2cnc3c(N)ncnc32)[C@H](O)[C@@H]1O (stereo partly drawn) [ademetionine] when you can.
91.4

Assign cell viability to the following record: C=CC[C@]1(O)CC[C@H]2[C@@H]3CCC4=CCCC[C@@H]4[C@H]3CC[C@@]21C [allylestrenol]
105

Given the compound `CC(C)C[C@@H](N)C1(c2ccc(Cl)cc2)CCC1` , write its reported cell viability.
103

***
Report measured cell viability; entry is O=C(O[C@H]1[C@H](OC(=O)c2cccnc2)[C@@H](OC(=O)c2cccnc2)[C@H](OC(=O)c2cccnc2)[C@@H](OC(=O)c2cccnc2)[C@H]1OC(=O)c1cccnc1)c1cccnc1 [inositol-hexanicotinate]
96.5

Kindly indicate its recorded cell viability. Item: C[C@@H]1NC(C)(C)CO[C@@]1(O)c1cccc(Cl)c1 [radafaxine]
98.4

State its cell viability for this compound: Oc1ccc(CC2NCCc3cc(O)c(O)cc32)cc1 (stereo not drawn) [higenamine]
83.3
